- test.target: Mu-type opioid receptor (Homo sapiens)
- Sequence (P35372 whole entry): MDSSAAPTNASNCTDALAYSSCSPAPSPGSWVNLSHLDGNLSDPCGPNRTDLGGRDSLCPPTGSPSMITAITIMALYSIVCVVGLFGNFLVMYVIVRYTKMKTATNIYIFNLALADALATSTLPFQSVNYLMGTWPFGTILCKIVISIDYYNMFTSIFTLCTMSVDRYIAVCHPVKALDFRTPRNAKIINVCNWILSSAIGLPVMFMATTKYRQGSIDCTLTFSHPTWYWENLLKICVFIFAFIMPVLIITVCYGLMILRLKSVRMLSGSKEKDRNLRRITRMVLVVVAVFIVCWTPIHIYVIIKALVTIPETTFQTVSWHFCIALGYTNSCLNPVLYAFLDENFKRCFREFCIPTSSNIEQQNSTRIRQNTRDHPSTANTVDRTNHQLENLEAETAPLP
- assay.protocol: Displacement of [3H]naloxone from human mu opioid receptor expressed in CHOK1 cells
- Assay type: cell-based, CHO-K1
Overview of recorded Ki for various compounds
measured.attribute: Ki

>>> reported("O=C(Cc1ccc(Cl)c(Cl)c1)N1C[C@@H]2CC[C@@H](N3CCCC3)[C@H]1CN2Cc1ccccc1")
"1150 nM"
>>> reported("COC(=O)N1C[C@H]2[C@@H](N3CCCC3)CC[C@@H]1CN2C(=O)Cc1ccc(Cl)c(Cl)c1")
"6120 nM"
>>> reported("O=C(Cc1ccc(Cl)c(Cl)c1)N1C[C@H]2CC[C@H](N3CCCC3)[C@@H]1CN2Cc1ccccc1")
"180 nM"
>>> reported("O=C(Cc1ccc(Cl)c(Cl)c1)N1C[C@@H]2CC[C@H](N3CCCC3)[C@H]1CN2Cc1ccccc1")
"> 1000 nM"
>>> reported("COC(=O)N1C[C@@H]2[C@@H](N3CCCC3)CC[C@H]1CN2C(=O)Cc1ccc(Cl)c(Cl)c1")
"> 1000 nM"
>>> reported("O=C(Cc1ccc(Cl)c(Cl)c1)N1C[C@H]2CC[C@@H](N3CCCC3)[C@@H]1CN2Cc1ccccc1")
"470 nM"
>>> reported("CCC(=O)N1C[C@H]2[C@@H](N3CCCC3)CC[C@@H]1CN2C(=O)Cc1ccc(Cl)c(Cl)c1")
"> 1000 nM"
>>> reported("CCC(=O)N1C[C@@H]2[C@H](N3CCCC3)CC[C@H]1CN2C(=O)Cc1ccc(Cl)c(Cl)c1")
"> 1000 nM"
>>> reported("CCC(=O)N1C[C@@H]2[C@@H](N3CCCC3)CC[C@H]1CN2C(=O)Cc1ccc(Cl)c(Cl)c1")
"> 1000 nM"
>>> reported("COC(=O)N1C[C@H]2[C@H](N3CCCC3)CC[C@@H]1CN2C(=O)Cc1ccc(Cl)c(Cl)c1")
"140 nM"
>>> reported("COC(=O)N1C[C@@H]2[C@H](N3CCCC3)CC[C@H]1CN2C(=O)Cc1ccc(Cl)c(Cl)c1")
"> 1000 nM"
>>> reported("CCC(=O)N1C[C@H]2[C@H](N3CCCC3)CC[C@@H]1CN2C(=O)Cc1ccc(Cl)c(Cl)c1")
"650 nM"

Provenance of the data: ChEMBL document CHEMBL1157818
